# key: entry, value: Kb
# experimental.system: CCK-A (Cavia porcellus)
# Construct: Isolated, strip preparations were prepared from gall-bladders removed from male Dunkin-Hartley guinea-pigs; from tissue; host or cells: isolated gall-bladder strips of male Dunkin-Hartley guinea-pigs
# Sequence (Q63931 whole entry): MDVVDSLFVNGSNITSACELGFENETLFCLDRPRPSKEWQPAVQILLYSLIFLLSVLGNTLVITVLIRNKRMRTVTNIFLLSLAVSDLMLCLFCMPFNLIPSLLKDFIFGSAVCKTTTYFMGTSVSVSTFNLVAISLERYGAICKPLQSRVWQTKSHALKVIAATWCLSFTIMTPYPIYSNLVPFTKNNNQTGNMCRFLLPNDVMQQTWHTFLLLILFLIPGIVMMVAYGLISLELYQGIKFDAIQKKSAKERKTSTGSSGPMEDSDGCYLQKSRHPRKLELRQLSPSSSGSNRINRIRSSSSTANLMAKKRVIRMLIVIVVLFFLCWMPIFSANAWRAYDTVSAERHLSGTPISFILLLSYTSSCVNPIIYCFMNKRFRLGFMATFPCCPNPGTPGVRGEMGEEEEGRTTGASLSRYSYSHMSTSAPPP
# assay.name: CCK-receptor bioassay, isolated guinea-pig gall-bladder strips, CCK-8 as agonist
# Format: cell-based, male Dunkin-Hartley guinea-pigs
# experimental.parameters: negative logarithm (base 10) of equilibrium dissociation constant (pKB), CCK-8 agonist, test compound incubated 60 minutes, read-out: pK8 versus CCK (gallbladder) (converted)
readout.kind: Kb

smi	readout.value
O=C(O)C[C@@H](NS(=O)(=O)c1ccc2ccccc2c1)C(=O)NCCc1ccccc1	1.2 µM
O=C(O)C[C@H](NS(=O)(=O)c1ccc2ccccc2c1)C(=O)NCCc1ccccc1	0.324 µM
O=C(O)C[C@H](NS(=O)(=O)c1ccc2ccccc2c1)C(=O)NCCc1ccc(F)cc1	0.269 µM
COc1cc2cc(S(=O)(=O)N[C@@H](CC(=O)O)C(=O)NCCc3ccccc3)ccc2c(Cl)c1OC	0.617 µM
COc1ccc(CCNC(=O)[C@H](CC(=O)O)NS(=O)(=O)c2ccc3ccccc3c2)cc1	1.02 µM
COc1ccc2cc(S(=O)(=O)N[C@@H](CC(=O)O)C(=O)NCCc3ccccc3)ccc2c1	0.257 µM
NS(=O)(=O)c1ccc(CCNC(=O)[C@H](CC(=O)O)NS(=O)(=O)c2ccc3ccccc3c2)cc1	11.2 µM
O=C(O)C[C@H](NS(=O)(=O)c1ccc2ccccc2c1)C(=O)NCCCc1ccccc1	0.105 µM
O=C(O)CC[C@H](NS(=O)(=O)c1ccc2ccccc2c1)C(=O)NCCc1ccccc1	0.724 µM
O=C(O)C[C@H](NS(=O)(=O)c1ccc(Cl)c(Cl)c1)C(=O)NCCc1ccccc1	1.7 µM
O=C(O)C[C@H](NS(=O)(=O)c1ccc2ccccc2c1)C(=O)N1CCc2ccccc2C1	7.24 µM
O=C(O)C[C@H](NS(=O)(=O)CCc1ccccc1)C(=O)NCCc1ccccc1	3.47 µM
